biological target: MK2 (Homo sapiens, UniProt P49137); experiment: MK2 degradation in human SW1353 cells (MSD, 24 h); type: cell-based; parameters: endogenous in cells; host or cells: SW-1353 (ATCC HTB-94); conditions: read-out: MK2 MSD SW1353 degradation 24 h GMean External Abs DC50
Sequence (P49137 whole entry): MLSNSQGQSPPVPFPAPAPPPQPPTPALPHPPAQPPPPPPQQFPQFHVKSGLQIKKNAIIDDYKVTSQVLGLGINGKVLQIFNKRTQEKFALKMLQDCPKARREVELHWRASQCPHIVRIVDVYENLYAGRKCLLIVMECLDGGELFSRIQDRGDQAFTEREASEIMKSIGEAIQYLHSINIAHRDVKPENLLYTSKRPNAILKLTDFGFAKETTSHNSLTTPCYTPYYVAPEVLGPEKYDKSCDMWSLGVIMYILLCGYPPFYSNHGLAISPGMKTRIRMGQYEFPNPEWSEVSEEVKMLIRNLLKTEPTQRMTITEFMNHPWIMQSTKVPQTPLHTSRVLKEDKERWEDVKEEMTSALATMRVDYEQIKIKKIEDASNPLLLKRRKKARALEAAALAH
Measure: DC50

Molecule	DC50
C[C@@H]1CNc2c(sc3ccc4nc(-c5ccc(N6CCN(CCCc7ccc8c(c7)n(C)c(=O)n8C7CCC(=O)NC7=O)CC6)cc5Cl)ccc4c23)C(=O)N1 (some centres unmarked)	< 1 nM
C[C@@H]1CNc2c(sc3ccc4nc(-c5ccc(N6CCC(CN7CCC(c8cccc9c8n(C)c(=O)n9C8CCC(=O)NC8=O)CC7)CC6)cc5F)ccc4c23)C(=O)N1 (some centres unmarked)	< 1 nM
Cn1c(=O)n(C2CCC(=O)NC2=O)c2ccc(N3CCC(CN4CCN(c5ccc(-c6cc(-c7cc8c(s7)CCNC8=O)ccn6)cc5)CC4)CC3)cc21 (centres unmarked)	> 100 nM

Return reported DC50; argument: Cn1c(=O)n(C2CCC(=O)NC2=O)c2ccc(N3CC(CN4CCN(c5ccc(-c6nccc(-c7cc8c([nH]7)C7(CCCC7)CNC8=O)n6)cc5)CC4)C3)cc21 (centres unmarked)
< 1 nM

Please answer likewise for COc1cc(N2CCN(CC3CCN(c4ccc5c(c4)n(C)c(=O)n5C4CCC(=O)NC4=O)CC3)CC2)cc(-n2cc(-c3ccc4c(c3)CCNC4=O)c(N)n2)c1 (centres unmarked)
> 100 nM

Please answer likewise for Cn1c(=O)n(C2CCC(=O)NC2=O)c2cccc(C3CCN(CC4CCN(c5ccc(F)c(-c6cc(-c7cc8c([nH]7)CCNC8=O)ccn6)c5)CC4)CC3)c21 (centres unmarked)
> 100 nM

Please answer likewise for C[C@@H]1CNc2c(sc3ccc4nc(-c5ccc(N6CCC7(CC6)CN(CCCCCCc6cccc8c6n(C)c(=O)n8C6CCC(=O)NC6=O)C7)cc5)ccc4c23)C(=O)N1 (some centres unmarked)
1 to 10 nM

Please answer likewise for C[C@@H]1CNc2c(sc3ccc4nc(N5CC6(CCN(C7CCN(c8ccc9c(c8)n(C)c(=O)n9C8CCC(=O)NC8=O)CC7)CC6)C5)ccc4c23)C(=O)N1 (some centres unmarked)
> 100 nM

Please answer likewise for C[C@@H]1CNc2c(sc3ccc4nc(-c5cc(N6CCN(CC7CCN(c8ccc9c(c8)n(C)c(=O)n9C8CCC(=O)NC8=O)CC7)CC6)nc(C(C)(C)O)c5)ccc4c23)C(=O)N1 (some centres unmarked)
> 100 nM

Please answer likewise for Cn1c(=O)n(C2CCC(=O)NC2=O)c2ccc(N3CC(CN4CCN(c5ccc(-c6cc(-c7cc8c([nH]7)C7(CCCC7)CNC8=O)ccn6)c(F)c5)CC4)C3)cc21 (centres unmarked)
< 1 nM

Please answer likewise for C[C@@H]1CNc2c(sc3ccc4nc(-c5ccc(N6CCN(C[C@H]7C[C@@H](c8ccc9c(c8)n(C)c(=O)n9C8CCC(=O)NC8=O)C7)CC6)cc5)ccc4c23)C(=O)N1 (some centres unmarked)
< 1 nM

---

biological target: MK2 (Homo sapiens); experiment: MK2 degradation in human THP-1 monocytic cells (MSD, 24 h); type: cell-based; design: endogenous in cells; conditions: THP-1, THP-1 cells
Measure: Dmax

Examples with their reported Dmax follow.
Molecule	Tested Target	Reported Measurement
C[C@@H]1CNc2c(sc3ccc4nc(N5CC6(CCN(CC7CCN(c8ccc9c(c8)n(C)c(=O)n9C8CCC(=O)NC8=O)CC7)CC6)C5)ccc4c23)C(=O)N1 (some centres unmarked)	MK2 (Homo sapiens)	< 50%
Cn1c(=O)n(C2CCC(=O)NC2=O)c2ccc(N3CC(CN4CCN(c5ccc(-c6cc(-c7cc8c([nH]7)C7(CC7)CNC8=O)ccn6)cc5)CC4)C3)cc21 (centres unmarked)	MK2 (Homo sapiens)	> 75%
C[C@@H]1CNc2c(sc3ccc4nc(-c5ccc(N6CCN(CCCc7cccc8c7n(C)c(=O)n8C7CCC(=O)NC7=O)CC6)cc5)ccc4c23)C(=O)N1 (some centres unmarked)	MK2 (Homo sapiens)	> 75%
Cn1c(=O)n(C2CCC(=O)NC2=O)c2ccc(N3CCC(CN4CCN(c5cc(-c6ccccc6)cc(-c6cc(-c7cc8c([nH]7)CCNC8=O)ccn6)c5)CC4)CC3)cc21 (centres unmarked)	MK2 (Homo sapiens)	< 50%
Cn1c(=O)n(C2CCC(=O)NC2=O)c2cccc(CCCN3CCN(c4ccc(-c5cc(-c6cc7c([nH]6)C6(CCC6)CNC7=O)ccn5)cc4)CC3)c21 (centres unmarked)	MK2 (Homo sapiens)	> 75%

Return reported Dmax; argument: COc1cccc(-c2cc(N3CCN(CC4CCN(c5ccc6c(c5)n(C)c(=O)n6C5CCC(=O)NC5=O)CC4)CC3)cc(-n3cc(-c4ccc5c(c4)CCNC5=O)c(N)n3)c2)c1 (centres unmarked)
< 50%

Please answer likewise for C[C@@H]1CNc2c(sc3ccc4nc(-c5ccc(N6CCC(CN7CCN(c8cccc9c(N%10CCC(=O)NC%10=O)cncc89)CC7)CC6)cc5)ccc4c23)C(=O)N1
> 75%

Please answer likewise for C[C@@H]1CNc2c(sc3ccc4nc(-c5ccc(CNC(=O)CCCCCCCc6cccc7c6n(C)c(=O)n7C6CCC(=O)NC6=O)cc5)ccc4c23)C(=O)N1 (some centres unmarked)
> 75%

Please answer likewise for C[C@@H]1CNc2c(sc3ccc4nc(-c5ccc(N6CCN(C7CC(c8cccc9c8n(C)c(=O)n9C8CCC(=O)NC8=O)C7)CC6)cc5)ccc4c23)C(=O)N1 (some centres unmarked)
> 75%

Please answer likewise for C[C@@H]1CNc2c(sc3ccc4nc(-c5ccc(N6CCC(CN7CCC(c8ccc9c(c8)n(C)c(=O)n9C8CCC(=O)NC8=O)CC7)CC6)cc5F)ccc4c23)C(=O)N1 (some centres unmarked)
> 75%

Please answer likewise for C[C@@H]1CNc2c(sc3ccc4nc(-c5ccc(N6CCC(CN7CCC(c8cccc9c(N%10CCC(=O)NC%10=O)cncc89)CC7)CC6)cc5)ccc4c23)C(=O)N1
> 75%

---

target: MK2 (Homo sapiens); assay: MK2 degradation in human SW1353 cells (MSD, 24 h); format: cell-based; design: endogenous in cells; host or cells: SW-1353 (ATCC HTB-94); settings: read-out: MK2 MSD SW1353 degradation 24 h GMean External Abs DC50
Measure: DC50

Compound	Measure	Reported Measurement
COc1cccc(-c2cc(N3CCN(CC4CCN(c5ccc6c(c5)n(C)c(=O)n6C5CCC(=O)NC5=O)CC4)CC3)cc(-n3cc(-c4ccc5c(c4)CCNC5=O)c(N)n3)c2)c1 (centres unmarked)	DC50	> 100 nM
C[C@@H]1CNc2c(sc3ccc4nc(-c5cnc(N6CCC(CN7CCN(c8cccc9c8n(C)c(=O)n9C8CCC(=O)NC8=O)CC7)CC6)nc5)ccc4c23)C(=O)N1 (some centres unmarked)	DC50	1 to 10 nM

Return reported DC50; argument: Cn1c(=O)n(C2CCC(=O)NC2=O)c2ccc(N3CC(CN4CCN(c5ccc(-c6nccc(-c7cc8c([nH]7)C7(CC7)CNC8=O)n6)cc5)CC4)C3)cc21 (centres unmarked)
< 1 nM

Please answer likewise for C[C@@H]1CNc2c(sc3ccc4nc(-c5ccc(N6CCC(CN7CCC(c8ccc9c(c8)n(C)c(=O)n9C8CCC(=O)NC8=O)CC7)CC6)cc5F)ccc4c23)C(=O)N1 (some centres unmarked)
< 1 nM

Please answer likewise for C[C@@H]1CNc2c(sc3ccc4nc(-c5ccc(N6CCN(CC7CCN(c8cccc9c8n(C)c(=O)n9C8CCC(=O)NC8=O)CC7)CC6)cc5)ccc4c23)C(=O)N1 (some centres unmarked)
1 to 10 nM

Please answer likewise for Cn1c(=O)n(C2CCC(=O)NC2=O)c2ccc(N3CCC(CN4CCN(c5ccc(-c6cc(-c7cc8c([nH]7)CCNC8=O)ccn6)cn5)CC4)CC3)cc21 (centres unmarked)
< 1 nM

Please answer likewise for Cn1c(=O)n(C2CCC(=O)NC2=O)c2ccc(N3CCC(CN4CCN(c5ccc(-c6nccc(-c7cc8c([nH]7)CCNC8=O)n6)cc5)CC4)CC3)cc21 (centres unmarked)
< 1 nM

Please answer likewise for C[C@@H]1CNc2c(sc3ccc4nc(-c5ccc(N6CCN(CC7CCN(c8ccc9c(c8)n(C)c(=O)n9C8CCC(=O)NC8=O)CC7)CC6)cc5F)ccc4c23)C(=O)N1 (some centres unmarked)
1 to 10 nM

Please answer likewise for C[C@@H]1CNc2c(sc3ccc4nc(-c5ccc(N6CCN(CC7CCN(c8cccc(C9CCC(=O)NC9=O)c8)CC7)CC6)nc5)ccc4c23)C(=O)N1 (some centres unmarked)
1 to 10 nM

Please answer likewise for C[C@@H]1CNc2c(sc3ccc4nc(-c5ccnc(N6CCC(CN7CCN(c8ccc9c(c8)n(C)c(=O)n9C8CCC(=O)NC8=O)CC7)CC6)c5)ccc4c23)C(=O)N1 (some centres unmarked)
< 1 nM

Please answer likewise for C[C@@H]1CNc2c(sc3ccc4nc(-c5ccc(C#CCCNC(=O)CCCCCCCc6ccc7c(c6)n(C)c(=O)n7C6CCC(=O)NC6=O)cc5)ccc4c23)C(=O)N1 (some centres unmarked)
1 to 10 nM
